# TESTED_ON: NK-2 receptors (Cavia porcellus, UniProt Q64077)
# Construct: the NK-2 receptors present in the gall-bladder preparations; anaesthetised whole animal (A3)
# Sequence (Q64077 whole entry): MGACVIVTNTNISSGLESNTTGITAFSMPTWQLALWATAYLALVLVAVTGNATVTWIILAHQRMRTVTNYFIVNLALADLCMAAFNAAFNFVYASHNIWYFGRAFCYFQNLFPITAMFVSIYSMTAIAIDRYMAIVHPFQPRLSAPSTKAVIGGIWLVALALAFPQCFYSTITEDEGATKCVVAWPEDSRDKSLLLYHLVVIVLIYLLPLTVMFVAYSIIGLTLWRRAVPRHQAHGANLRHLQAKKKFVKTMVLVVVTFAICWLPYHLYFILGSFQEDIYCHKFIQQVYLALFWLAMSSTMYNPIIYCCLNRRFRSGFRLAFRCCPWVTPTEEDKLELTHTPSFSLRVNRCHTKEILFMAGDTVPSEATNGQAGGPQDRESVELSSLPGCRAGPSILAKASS
# ASSAY_OVERVIEW: Functional NK-2 antagonism on isolated guinea pig gall-bladder preparations (NKA-induced contraction)
# RUN_CONDITIONS: inhibition of contraction caused by NKA 0.1 μmol/l; two hours' incubation; Pirbright-White guinea pig gall-bladder
PROPERTY_MEASURED: IC50 (nM)

>>> endpoint_result("CN(CC(CCN1CCN(C(c2ccsc2)[C@H](O)[C@@H](O)[C@H](O)CO)CC1)c1ccc(Cl)c(Cl)c1)C(=O)c1ccccc1 (mixture of isomers)")
0.251
>>> endpoint_result("CN(CC(CCN1CCN(C(c2ccsc2)[C@@H](O)[C@H](O)[C@H](O)CO)CC1)c1ccc(Cl)c(Cl)c1)C(=O)c1ccccc1 (mixture of isomers)")
0.2
>>> endpoint_result("CN(CC(CCN1CCN(C(c2ccco2)[C@H](O)[C@@H](O)[C@H](O)CO)CC1)c1ccc(Cl)c(Cl)c1)C(=O)c1ccccc1 (mixture of isomers)")
0.398
>>> endpoint_result("CN(C[C@@H](CCN1CCN(C(c2ccsc2)[C@H](O)[C@@H](O)[C@H](O)CO)CC1)c1ccc(Cl)c(Cl)c1)C(=O)c1ccccc1 (stereo partly drawn)")
0.158
>>> endpoint_result("CN(CC(CCN1CCN(C(c2ccsc2)[C@@H](O)[C@@H](O)[C@H](O)CO)CC1)c1ccc(Cl)c(Cl)c1)C(=O)c1ccccc1 (mixture of isomers)")
0.501
>>> endpoint_result("CC(=O)OC[C@@H](OC(C)=O)[C@H](OC(C)=O)[C@@H](OC(C)=O)C(c1ccsc1)N1CCN(CC[C@H](CN(C)C(=O)c2ccccc2)c2ccc(Cl)c(Cl)c2)CC1 (stereo partly drawn)")
2
